# Tested on: Diamine oxidase AOC1 (Rattus norvegicus)
# Protocol details: Inhibition of rat liver DAO using putrescine as substrate after 1 hr by fluorometric assay
pIC50: −log10 of the molar value.
Reported property: pIC50

[
  {
    "Structure smiles string": "CC(=O)Nc1nc(CCc2ccc(N=C(N)N)cc2)cs1",
    "Assay result": 4.12
  }
]

---

# Tested on: Diamine oxidase AOC1 (Homo sapiens)
# Protocol details: Inhibition of human DAO expressed in CHO cells using putrescine as substrate after 1 hr by fluorometric assay

[
  {
    "Structure smiles string": "CC(=O)Nc1nc(CCc2ccc(N=C(N)N)cc2)cs1",
    "IC50": "> 100 µM"
  }
]
